Target: hRIPK1 (aa 1-375) fusion protein (Homo sapiens, UniProt Q13546)
Construct: hRIPK1 (aa 1-375) fusion protein
Sequence (Q13546 1-375): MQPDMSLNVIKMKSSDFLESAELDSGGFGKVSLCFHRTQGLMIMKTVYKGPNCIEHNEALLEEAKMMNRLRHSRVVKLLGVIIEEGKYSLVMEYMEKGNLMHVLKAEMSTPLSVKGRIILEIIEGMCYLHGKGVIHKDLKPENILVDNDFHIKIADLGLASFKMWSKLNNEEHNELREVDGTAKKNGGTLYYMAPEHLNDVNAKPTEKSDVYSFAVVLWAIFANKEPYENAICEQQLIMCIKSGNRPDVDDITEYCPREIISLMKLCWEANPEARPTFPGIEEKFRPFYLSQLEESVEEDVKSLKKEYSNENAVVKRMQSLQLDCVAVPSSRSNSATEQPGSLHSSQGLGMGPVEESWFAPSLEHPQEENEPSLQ
Assay: ADP-Glo kinase assay: catalytic activity of RIPK1 (autophosphorylation, conversion of ATP to ADP)
property_measured: log10 of IC50 (log10 of the value in nM)
// stored as log10 of IC50 expressed in nM

| molecule | log10 of IC50 |
| --- | --- |
| Cc1nn(C[C@H]2CC[C@H](C(=O)N3OCC[C@H]3c3cc(F)cc(C#N)c3)CC2)c2cc(C(N)=O)cc(F)c12 | 1.36 |
| Cc1ncc(F)cc1C[C@H]1CC[C@H](C(=O)N2OCC[C@H]2c2cc(F)cc(F)c2)CC1 | 1.34 |
| O=c1oc2ccccc2n1C[C@H]1CC[C@H](C(=O)N2OCC[C@H]2c2cc(F)cc(F)c2)CC1 | 1.30 |
| Cc1ccc(C[C@H]2CC[C@H](C(=O)N3OCC[C@H]3c3cc(F)cc(C#N)c3)CC2)cc1C(N)=O | 0.90 |

Please indicate log10 of IC50 recorded for Cn1nccc1C[C@H]1CC[C@H](C(=O)N2OCC[C@H]2c2cc(F)cc(F)c2)CC1
1.18

* * *

Below, each entry is listed alongside its reported pIC50.
Biological target: hRIPK1 (aa 1-375) fusion protein (Homo sapiens, UniProt Q13546)
Construct: hRIPK1 (aa 1-375) fusion protein
Experiment: ADP-Glo kinase assay: catalytic activity of RIPK1 (autophosphorylation, conversion of ATP to ADP)
Method: The catalytic activity of RIPK1 was measured by monitoring the conversion of Adenosine triphosphate (ATP) to Adenosine diphosphate (ADP) due to autophosphorylation using an ADP-Glo kinase kit (Promega, catalog no. V9104). […]
// pIC50: -log10(molar conc.)

Please indicate pIC50 recorded for Cc1nc2cc(F)ccc2n1C[C@H]1CC[C@H](C(=O)N2OCC[C@H]2c2cc(F)cc(F)c2)CC1
7.47

Please indicate pIC50 recorded for CNC(=O)c1cc(F)cc(C[C@H]2CC[C@H](C(=O)N3OCC[C@H]3c3cnccn3)CC2)c1
8.40

Please indicate pIC50 recorded for Cc1cn2cc(C[C@H]3CC[C@H](C(=O)N4OCC[C@H]4c4cnccn4)CC3)ccc2n1
7.36

Please indicate pIC50 recorded for N#Cc1cncc([C@@H]2CCON2C(=O)[C@H]2CC[C@H](Cn3cnc4cc(F)ccc43)CC2)c1
7.41

* * *

Below, each entry is listed alongside its reported IC50.
Biological target: hRIPK1 (aa 1-375) fusion protein (Homo sapiens, UniProt Q13546)
Construct: hRIPK1 (aa 1-375) fusion protein
Sequence (Q13546 1-375): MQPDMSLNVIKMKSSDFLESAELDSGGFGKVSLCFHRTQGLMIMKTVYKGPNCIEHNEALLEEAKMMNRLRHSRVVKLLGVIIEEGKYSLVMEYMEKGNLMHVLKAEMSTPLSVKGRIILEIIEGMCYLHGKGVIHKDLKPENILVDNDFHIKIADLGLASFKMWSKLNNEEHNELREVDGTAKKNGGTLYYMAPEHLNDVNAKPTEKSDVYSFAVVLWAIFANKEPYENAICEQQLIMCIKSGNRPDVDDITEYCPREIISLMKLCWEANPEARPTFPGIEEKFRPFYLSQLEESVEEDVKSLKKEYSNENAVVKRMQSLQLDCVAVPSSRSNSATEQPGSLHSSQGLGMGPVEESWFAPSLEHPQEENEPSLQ
Experiment: ADP-Glo kinase assay: catalytic activity of RIPK1 (autophosphorylation, conversion of ATP to ADP)
Supply the numeric figure in nM, leaving out any unit text.

Worked set:
| cpd_smiles | property_measured | assay_value |
| --- | --- | --- |
| Cc1cn2ncc(C[C@H]3CC[C@H](C(=O)N4OCC[C@H]4c4cccc(F)c4)CC3)cc2n1 | IC50 | 10 |
| Cc1nc2cc(F)ccc2n1C[C@H]1CC[C@H](C(=O)N2OCC[C@H]2c2cc(F)cc(C#N)c2)CC1 | IC50 | 27 |

Please indicate IC50 recorded for N#Cc1cc(F)cc([C@@H]2CCON2C(=O)[C@H]2CC[C@H](Cn3ncc4cc(C#N)ccc43)CC2)c1
17

Please indicate IC50 recorded for O=C([C@H]1CC[C@H](Cn2cnc3cc(F)ccc32)CC1)N1OCC[C@H]1c1cnccn1
75

* * *

Target: hRIPK1 (aa 1-375) fusion protein (Homo sapiens)
Construct: hRIPK1 (aa 1-375) fusion protein
Test: ADP-Glo kinase assay: catalytic activity of RIPK1 (autophosphorylation, conversion of ATP to ADP)
property_measured: pIC50
// pIC50: -log10(molar conc.)

| cpd_smiles | pIC50 |
| --- | --- |
| Cc1ccc(C[C@H]2CC[C@H](C(=O)N3OCC[C@H]3c3cc(F)cc(C#N)c3)CC2)nn1 | 8.15 |
| N#Cc1cc(F)cc([C@@H]2CCON2C(=O)[C@H]2CC[C@H](Cc3ccc(CCO)c(F)c3)CC2)c1 | 8.15 |
| Cc1ncc([C@@H]2CCON2C(=O)[C@H]2CC[C@H](Cc3ccnn3C)CC2)cc1F | 7.82 |
| N#Cc1cc(F)cc([C@@H]2CCON2C(=O)[C@H]2CC[C@H](Cn3cnc4ccccc43)CC2)c1 | 7.82 |
| Cn1cncc1C[C@H]1CC[C@H](C(=O)N2OCC[C@H]2c2cncc(C#N)c2)CC1 | 6.08 |

Please indicate pIC50 recorded for N#Cc1cncc([C@@H]2CCON2C(=O)[C@H]2CC[C@H](Cn3cnc4cc(F)c(C#N)cc43)CC2)c1
7.70

Please indicate pIC50 recorded for Cc1nccn1-c1cc(F)cc(C[C@H]2CC[C@H](C(=O)N3OCC[C@H]3c3cc(F)cc(C#N)c3)CC2)c1
7.82

Please indicate pIC50 recorded for Cc1nc2c(F)cc(C[C@H]3CC[C@H](C(=O)N4OCC[C@H]4c4cnc(C)c(F)c4)CC3)cn2n1
7.32

Please indicate pIC50 recorded for Cc1cc([C@@H]2CCON2C(=O)[C@H]2CC[C@H](Cn3cnc4cc(C#N)c(F)cc43)CC2)co1
7.39

Please indicate pIC50 recorded for Cc1nc2c(F)cc(C[C@H]3CC[C@H](C(=O)N4OCC[C@H]4c4cc(F)cc(C#N)c4)CC3)cn2n1
7.77

* * *

Target: hRIPK1 (aa 1-375) fusion protein (Homo sapiens)
Construct: hRIPK1 (aa 1-375) fusion protein
Test: ADP-Glo kinase assay: catalytic activity of RIPK1 (autophosphorylation, conversion of ATP to ADP)
Assay type: biochemical
Below, each entry is listed alongside its reported pIC50.
// pIC50: -log10(molar conc.)

Worked set:
| cpd_smiles | pIC50 |
| --- | --- |
| N#Cc1cc(F)cc([C@@H]2CCON2C(=O)[C@H]2CC[C@H](Cn3cnc4cc(C(N)=O)c(F)cc43)CC2)c1 | 7.55 |
| Cc1cc(C)n(-c2cc(C[C@H]3CC[C@H](C(=O)N4OCC[C@H]4c4cc(F)cc(C#N)c4)CC3)ncn2)n1 | 7.59 |
| Cc1nn(C[C@H]2CC[C@H](C(=O)N3OCC[C@H]3c3cc(F)cc(C#N)c3)CC2)c2ccccc12 | 7.64 |
| N#Cc1cc(F)cc([C@@H]2CCON2C(=O)[C@H]2CC[C@H](Cn3cnc4ccc(F)cc43)CC2)c1 | 7.64 |
| O=C([C@H]1CC[C@H](Cc2ccc3ncnn3c2)CC1)N1OCC[C@H]1c1cnccn1 | 7.12 |
| N#Cc1cc(F)cc([C@@H]2CCON2C(=O)[C@H]2CC[C@H](Cn3cc4cc(F)ccc4n3)CC2)c1 | 7.38 |
| CNC(=O)c1cc(F)cc(C[C@H]2CC[C@H](C(=O)N3OCC[C@H]3c3cncc(F)c3)CC2)c1 | 8.22 |
| Cc1ncc(C[C@H]2CC[C@H](C(=O)N3OCC[C@H]3c3cc(F)cc(C#N)c3)CC2)cn1 | 7.39 |

Please indicate pIC50 recorded for N#Cc1cncc([C@@H]2CCON2C(=O)[C@H]2CC[C@H](Cn3ccc4ncc(C#N)cc43)CC2)c1
7.57

Please indicate pIC50 recorded for Cc1cc([C@@H]2CCON2C(=O)[C@H]2CC[C@H](Cn3ncc4ccc(C#N)cc43)CC2)co1
7.74

Please indicate pIC50 recorded for N#Cc1cc(F)cc([C@@H]2CCON2C(=O)[C@H]2CC[C@H](Cc3ccc(C4(O)COC4)cc3)CC2)c1
7.72

Please indicate pIC50 recorded for O=C([C@H]1CC[C@H](Cn2cnc3ccccc32)CC1)N1OCC[C@H]1c1cncc(F)c1
6.95

Please indicate pIC50 recorded for Cc1nc([C@@H]2CCON2C(=O)[C@H]2CC[C@H](Cc3ccc4nnc(C)n4c3C)CC2)cs1
7.20

Please indicate pIC50 recorded for N#Cc1cc(F)c2cnn(C[C@H]3CC[C@H](C(=O)N4OCC[C@H]4c4cc(F)cc(F)c4)CC3)c2c1
7.72

Please indicate pIC50 recorded for Cc1cncc([C@@H]2CCON2C(=O)[C@H]2CC[C@H](Cc3cc(C)c4nc(C)nn4c3)CC2)n1
7.32
